The measured values listed here are drawn from ChEMBL document CHEMBL5356985.

Test: Selectivity index, ratio of IC50 for cytotoxicity against human L02 cells to IC50 for antiproliferative activity against human A549 cells
Type: toxicity, cell-based
Conditions: L02 cells and A549 cells, read-out: Ratio IC50
ATTRIBUTE MEASURED: selectivity ratio

COMPOUND	ATTRIBUTE MEASURED	RECORDED NUMBER
COc1cc(C2c3cc4c(cc3C(OC3OC5COC(C)OC5C(O)C3O)C3COC(=O)C23)OCO4)cc(OC)c1O (stereo unspecified)	selectivity ratio	0.5

----------
Biological target: UniProt P00533
Sequence (P00533 whole entry): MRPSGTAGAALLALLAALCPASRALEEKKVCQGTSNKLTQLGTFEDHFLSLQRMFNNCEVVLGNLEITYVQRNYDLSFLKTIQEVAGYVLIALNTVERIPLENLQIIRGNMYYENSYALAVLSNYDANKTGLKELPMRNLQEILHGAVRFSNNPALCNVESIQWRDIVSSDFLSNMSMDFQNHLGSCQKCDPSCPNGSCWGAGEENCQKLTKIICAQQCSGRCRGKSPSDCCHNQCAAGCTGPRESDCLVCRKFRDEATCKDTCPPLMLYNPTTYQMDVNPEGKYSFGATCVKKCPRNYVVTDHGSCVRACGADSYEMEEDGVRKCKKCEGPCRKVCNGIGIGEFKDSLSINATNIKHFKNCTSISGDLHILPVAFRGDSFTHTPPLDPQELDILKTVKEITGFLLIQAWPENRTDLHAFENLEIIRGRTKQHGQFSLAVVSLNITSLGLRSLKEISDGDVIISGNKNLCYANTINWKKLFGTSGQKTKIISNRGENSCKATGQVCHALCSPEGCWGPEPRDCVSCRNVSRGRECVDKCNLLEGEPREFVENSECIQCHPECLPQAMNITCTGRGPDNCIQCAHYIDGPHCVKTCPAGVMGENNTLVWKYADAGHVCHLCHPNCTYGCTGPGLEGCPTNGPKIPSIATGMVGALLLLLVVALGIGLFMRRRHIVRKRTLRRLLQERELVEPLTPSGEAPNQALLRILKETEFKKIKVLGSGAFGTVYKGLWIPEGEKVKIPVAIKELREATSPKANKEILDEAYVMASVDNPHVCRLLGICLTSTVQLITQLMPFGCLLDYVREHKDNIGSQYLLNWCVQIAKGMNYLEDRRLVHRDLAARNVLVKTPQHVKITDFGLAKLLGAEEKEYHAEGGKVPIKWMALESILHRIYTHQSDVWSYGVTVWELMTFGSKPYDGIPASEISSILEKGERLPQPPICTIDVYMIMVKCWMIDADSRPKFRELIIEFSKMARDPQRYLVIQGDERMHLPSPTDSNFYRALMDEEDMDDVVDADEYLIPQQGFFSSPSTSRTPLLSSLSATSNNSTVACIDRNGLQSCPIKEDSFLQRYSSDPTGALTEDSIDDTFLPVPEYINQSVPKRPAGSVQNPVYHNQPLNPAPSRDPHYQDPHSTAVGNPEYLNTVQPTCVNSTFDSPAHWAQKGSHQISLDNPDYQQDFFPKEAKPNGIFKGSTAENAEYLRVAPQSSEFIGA
Assay: Inhibition of EGFR (unknown origin)
pIC50: −log10 of the molar value.

SMILES REPR	pIC50
c1ccc2c(c1)CCN2c1ncnc2cc3c(cc12)NCN3CCN1CCCC1	7.49
O=C(N/N=C/c1cnc(N2CCCC2)nc1)Nc1cc2c(Nc3ccc(F)c(Cl)c3)ncnc2cc1O[C@@H]1CCOC1	8.20
